# Target: Recombinant Human EphA2 Fc Protein (Homo sapiens, UniProt P29317)
# Assay Name: SPR interaction analysis (Biacore T200), kinetics of peptides against EphA2
# Condition Set: Recombinant Human EphA2 Fc Protein captured by Human Antibody Capture kit; single-cycle kinetics; 25° C.; HBS-P+ buffer with 1% DMSO
Bridge positions count the residues as written; N and C are the ends. Square brackets hold non-standard residues; d marks the D form. Peptide text beside a SMILES is read from it. Trp(1-Me) = Cn1cc(C[C@H](N)C(=O)O)c2ccccc21; NMeF = CN[C@@H](Cc1ccccc1)C(=O)O; 4Pal = N[C@@H](Cc1ccncc1)C(=O)O; Gly(cBu) = N[C@H](C(=O)O)C1CCC1; Aad = N[C@@H](CCCC(=O)O)C(=O)O; NMeN = CN[C@@H](CC(N)=O)C(=O)O
Measured Quantity: Kd

Kindly note: Recombinant Human EphA2 Fc Protein (Homo sapiens, UniProt P29317), CC(C)C[C@@H]1NC(=O)[C@H](Cc2ccncc2)NC(=O)[C@H](Cc2ccccc2)NC(=O)CSC[C@@H](C(=O)NCC(N)=O)NC(=O)[C@H](Cc2cn(C)c3ccccc23)NC(=O)[C@H](Cc2ccccc2)N(C)C(=O)[C@H](Cc2cn(C)c3ccccc23)NC(=O)CNC1=O [PDC_EphA2-00020295-L092, F-4Py-L-G-W1Me-MeF-W1Me-C-G-NH2] ({CH2CO}-F[4Pal]LG[Trp(1-Me)][NMeF][Trp(1-Me)]CG-NH2; thioether N-8) , Kd value reported: 100 to 400 nM

Entry CC(C)[C@@H]1NC(=O)[C@H](Cc2cn(C)c3ccccc23)NC(=O)[C@H](CC(N)=O)N(C)C(=O)[C@H](CCCC(N)=O)NC(=O)[C@H](C2CCC2)NC(=O)[C@H](CC(N)=O)NC(=O)[C@H](Cc2ccccc2)N(C)C(=O)[C@@H](C)NC(=O)CSC[C@@H](C(N)=O)NC(=O)[C@H](CCCC(N)=O)NC(=O)[C@H]([C@@H](C)O)NC(=O)[C@H](Cc2cn(C)c3ccccc23)NC1=O [PDC_EphA2-00013693] ({CH2CO}-[dA][NMeF]N[Gly(cBu)][Aad](NH2)[NMeN][Trp(1-Me)]V[Trp(1-Me)]T[Aad](NH2)C-NH2; thioether N-12) under Recombinant Human EphA2 Fc Protein (Homo sapiens, UniProt P29317) had Kd of < 1 nM
